Provenance of the data: the NIST ThermoML archive (doi:10.1016/j.fluid.2014.11.020)

- assay.summary: activity coefficient (dimensionless); of the first substance listed, at infinite dilution; xn = mol fraction of the nth substance listed
- condition.label: 343.15 K; Liquid; Chromatography; x1 = 0
Measured activity coefficient accompanies every entry in the list below.

{"compound": "CC(C)OC(C)C [diisopropyl ether] + CCCOC[n+]1ccn(Cc2ccccc2)c1.N#C[N-]C#N", "activity coefficient": 12}
{"compound": "CCCCCCCCC [nonane] + CCCOC[n+]1ccn(C)c1.N#C[N-]C#N", "activity coefficient": 197}
{"compound": "c1ccsc1 [thiophene] + CCCOC[n+]1ccn(Cc2ccccc2)c1.O=S(=O)([N-]S(=O)(=O)C(F)(F)F)C(F)(F)F", "activity coefficient": 0.62}
{"compound": "c1ccccc1 [benzene] + CCCCCCCCn1cc[n+](COCCCOC[n+]2ccn(CCCCCCCC)c2C)c1C.O=S(=O)([N-]S(=O)(=O)C(F)(F)F)C(F)(F)F.O=S(=O)([N-]S(=O)(=O)C(F)(F)F)C(F)(F)F", "activity coefficient": 0.41}
{"compound": "C=CCCCC [hex-1-ene] + CN(C)c1cc[n+](COCCCOC[n+]2ccc(N(C)C)cc2)cc1.O=S(=O)([N-]S(=O)(=O)C(F)(F)F)C(F)(F)F.O=S(=O)([N-]S(=O)(=O)C(F)(F)F)C(F)(F)F", "activity coefficient": 7.95}
{"compound": "Cc1ccc(C)cc1 [1,4-dimethylbenzene] + CCCCCCCCn1cc[n+](COCCC)c1C.O=S(=O)([N-]S(=O)(=O)C(F)(F)F)C(F)(F)F", "activity coefficient": 1}
{"compound": "CCC(C)=O [butanone] + CCCOC[n+]1ccc(N(C)C)cc1.O=S(=O)([N-]S(=O)(=O)C(F)(F)F)C(F)(F)F", "activity coefficient": 0.45}
{"compound": "CCCCCCCCCCCC [dodecane] + CCCCCCCCn1cc[n+](COCCCOC[n+]2ccn(CCCCCCCC)c2C)c1C.O=S(=O)([N-]S(=O)(=O)C(F)(F)F)C(F)(F)F.O=S(=O)([N-]S(=O)(=O)C(F)(F)F)C(F)(F)F", "activity coefficient": 13.1}
{"compound": "CC(C)OC(C)C [diisopropyl ether] + CCCOC[n+]1ccn(C)c1.O=S(=O)([N-]S(=O)(=O)C(F)(F)F)C(F)(F)F", "activity coefficient": 4.46}
{"compound": "Cc1cccc(C)c1 [1,3-dimethylbenzene] + CCCOC[n+]1ccc(N(C)C)cc1.O=S(=O)([N-]S(=O)(=O)C(F)(F)F)C(F)(F)F", "activity coefficient": 1.48}
{"compound": "Cc1cccc(C)c1 [1,3-dimethylbenzene] + CCCCCCCCn1cc[n+](COCCC)c1C.N#C[N-]C#N", "activity coefficient": 1.57}
{"compound": "CC1CCCCC1 [methylcyclohexane] + CCCOC[n+]1ccn(C)c1.O=S(=O)([N-]S(=O)(=O)C(F)(F)F)C(F)(F)F", "activity coefficient": 13}
{"compound": "CCCCCCCCC [nonane] + Cn1cc[n+](COCCCOC[n+]2ccn(C)c2)c1.O=S(=O)([N-]S(=O)(=O)C(F)(F)F)C(F)(F)F.O=S(=O)([N-]S(=O)(=O)C(F)(F)F)C(F)(F)F", "activity coefficient": 72.4}
{"compound": "C1CCCCCC1 [cycloheptane] + CCCOC[n+]1ccn(C)c1.O=S(=O)([N-]S(=O)(=O)C(F)(F)F)C(F)(F)F", "activity coefficient": 46.1}
{"compound": "c1ccsc1 [thiophene] + CCCOC[n+]1ccc(N(C)C)cc1.O=S(=O)([N-]S(=O)(=O)C(F)(F)F)C(F)(F)F", "activity coefficient": 0.69}
{"compound": "c1ccncc1 [pyridine] + CCCOC[n+]1ccn(Cc2ccccc2)c1.F[B-](F)(F)F", "activity coefficient": 0.65}
{"compound": "CC(C)O [propan-2-ol] + Cn1cc[n+](COCCCOC[n+]2ccn(C)c2)c1.N#C[N-]C#N.N#C[N-]C#N", "activity coefficient": 1.26}
{"compound": "Cc1ccccc1C [1,2-dimethylbenzene] + CCCOC[n+]1ccn(Cc2ccccc2)c1.N#C[N-]C#N", "activity coefficient": 3.01}
{"compound": "C#CCCCC [1-hexyne] + Cn1cc[n+](COCCCOC[n+]2ccn(C)c2)c1.N#C[N-]C#N.N#C[N-]C#N", "activity coefficient": 14.6}
{"compound": "Cc1ccccc1 [toluene] + Cn1cc[n+](COCCCOC[n+]2ccn(C)c2)c1.N#C[N-]C#N.N#C[N-]C#N", "activity coefficient": 5.49}
{"compound": "CCCO [propan-1-ol] + CCCOC[n+]1ccn(Cc2ccccc2)c1.F[B-](F)(F)F", "activity coefficient": 1.78}
{"compound": "ClC(Cl)Cl [trichloromethane] + Cn1cc[n+](COCCCOC[n+]2ccn(C)c2)c1.N#C[N-]C#N.N#C[N-]C#N", "activity coefficient": 1.14}
{"compound": "CCC(C)=O [butanone] + CCCCCCCCn1cc[n+](COCCC)c1C.O=S(=O)([N-]S(=O)(=O)C(F)(F)F)C(F)(F)F", "activity coefficient": 0.3}
{"compound": "Cc1ccc(C)cc1 [1,4-dimethylbenzene] + CCCOC[n+]1ccn(Cc2ccccc2)c1.N#C[N-]C#N", "activity coefficient": 3.46}
{"compound": "CCCCCCC [heptane] + CCCOC[n+]1ccn(C)c1.O=S(=O)([N-]S(=O)(=O)C(F)(F)F)C(F)(F)F", "activity coefficient": 17.1}
{"compound": "CCCCCCCCCC [decane] + CCCCCCCCn1cc[n+](COCCCOC[n+]2ccn(CCCCCCCC)c2C)c1C.O=S(=O)([N-]S(=O)(=O)C(F)(F)F)C(F)(F)F.O=S(=O)([N-]S(=O)(=O)C(F)(F)F)C(F)(F)F", "activity coefficient": 8.35}
